Entry source: patent US10112926B2

Where a name gives a salt, the structure may show the parent alone.
Target or system Vps34 (Homo sapiens (Human)): recorded IC50 listed per item.
quantity.kind: IC50

compound=Cc1noc(-c2cc(-c3cc(S(=O)(=O)NC4CC(F)(F)C4)ccc3C)cnc2N)n1 endpoint_result="> 10 µM"
compound="Cc1noc(-c2cc(-c3cc(S(=O)(=O)NC4CC(O)C4)ccc3C)cnc2N)n1 (mixture of isomers) [Example 5.5, hydrochloride]" endpoint_result="> 10 µM"
compound="Cc1cc(-c2cc(-c3cc(S(=O)(=O)N[C@H]4CCC[C@H](O)C4)ccc3C)cnc2N)on1 [Example 19.16, trifluoroacetic acid salt]" endpoint_result="> 10 µM"

* * *

biological target: UniProtKB P42345
pIC50: −log10 of the molar value. Counter-ions that a name gives are not always drawn.
Reported pIC50 by item:
quantity.kind: pIC50

compound="Cc1noc(-c2cc(-c3cc(S(=O)(=O)NCCC(C)(C)O)ccc3C)cnc2N)n1 [Example 5, hydrochloride]" qualifier== endpoint_result=5.19
compound="Cc1noc(-c2cc(-c3cc(S(=O)(=O)NC4CC(O)C4)ccc3C)cnc2N)n1 (mixture of isomers) [Example 5.5, hydrochloride]" qualifier=< endpoint_result=5.00
compound=Cc1ncc(-c2cc(-c3cc(S(=O)(=O)NCCCO)ccc3C)cnc2N)s1 qualifier== endpoint_result=5.23
compound=Cc1ncc(-c2cc(-c3cc(S(=O)(=O)N[C@H]4CC[C@H](O)CC4)ccc3C)cnc2N)s1 qualifier== endpoint_result=5.19

* * *

Target or system PI 3-kinase alpha (Homo sapiens (Human), UniProt P42336): recorded pIC50 listed per item.
pIC50: −log10 of the molar value.
quantity.kind: pIC50

molecule=Cc1nnc(-c2cc(-c3cc(S(=O)(=O)NCCC(C)(C)O)ccc3C)cnc2N)o1 endpoint_result=6.15
molecule=Cc1ncc(-c2cc(-c3cc(S(=O)(=O)N[C@H]4CCC[C@H](O)C4)ccc3C)cnc2N)o1 endpoint_result=6.85
molecule=Cc1cc(-c2cc(-c3cc(S(=O)(=O)NCC(F)(F)F)ccc3C)cnc2N)on1 endpoint_result=6.35
molecule="Cc1ncc(-c2cc(-c3cc(S(=O)(=O)NC4CCC(O)(C(F)(F)F)C4)ccc3C)cnc2N)o1 (centres unmarked)" endpoint_result=7.10
molecule="Cc1ccc(S(=O)(=O)NC2CC3(CC(O)C3)C2)cc1-c1cnc(N)c(-c2cn(C)nc2C)c1 (centres unmarked)" endpoint_result=6.66
molecule=Cc1noc(-c2cc(-c3cc(S(=O)(=O)NCC(C)(C)O)c(C)cc3F)cnc2N)n1 endpoint_result=5.94
molecule=Cc1cc(-c2cc(-c3cc(S(=O)(=O)N[C@H]4CC[C@H](O)CC4)ccc3C)cnc2N)ccn1 endpoint_result=6.59
molecule=Cc1ncc(-c2cc(-c3cc(S(=O)(=O)NCC(C)(C)CO)ccc3C)cnc2N)s1 endpoint_result=6.46

* * *

target: PI 3-kinase alpha (Homo sapiens (Human))
pIC50: −log10 of the molar value. Counter-ions that a name gives are not always drawn.
Please use Fulfilled whenever pIC50 is not below 6, and Not fulfilled whenever it is.

molecule=Cc1noc(-c2cc(-c3cc(S(=O)(=O)N[C@@H]4CCNC(=O)C4)ccc3C)cnc2N)n1 assay_system="PI 3-kinase alpha (Homo sapiens (Human))" label_class="Not fulfilled"
molecule="Cc1cc(-c2cc(-c3cc(S(=O)(=O)N4CC[C@H](N(C)C)C4)ccc3C)cnc2N)on1 [Example 19.22, acetic acid salt]" assay_system="PI 3-kinase alpha (Homo sapiens (Human))" label_class="Not fulfilled"
molecule=Cc1noc(-c2cc(-c3cc(S(=O)(=O)NCC(C)(C)O)c(C)cc3C)cnc2N)n1 assay_system="PI 3-kinase alpha (Homo sapiens (Human))" label_class=Fulfilled
molecule=Cc1ncc(-c2cc(-c3cc(S(=O)(=O)NCC4COC4)ccc3C)cnc2N)s1 assay_system="PI 3-kinase alpha (Homo sapiens (Human))" label_class=Fulfilled
molecule=Cc1cccc(NS(=O)(=O)c2ccc(C)c(-c3cnc(N)c(-c4cnn(C)c4)c3)c2)n1 assay_system="PI 3-kinase alpha (Homo sapiens (Human))" label_class=Fulfilled
molecule=Cc1ccc(S(=O)(=O)N[C@H]2CC[C@H](O)CC2)cc1-c1cnc(N)c(-c2cnn(C)c2)c1 assay_system="PI 3-kinase alpha (Homo sapiens (Human))" label_class=Fulfilled
molecule=Cc1ncc(-c2cc(-c3cc(S(=O)(=O)N4CC(CO)C4)ccc3C)cnc2N)s1 assay_system="PI 3-kinase alpha (Homo sapiens (Human))" label_class=Fulfilled
molecule=Cc1ncc(-c2cc(-c3cc(S(=O)(=O)NCC4(O)COC4)ccc3C)cnc2N)s1 assay_system="PI 3-kinase alpha (Homo sapiens (Human))" label_class=Fulfilled

* * *

molecular target: mTOR (Homo sapiens (Human), UniProt P42345)
pIC50: −log10 of the molar value. Counter-ions that a name gives are not always drawn.
quantity.kind: pIC50

molecule="Cc1cc(-c2cc(-c3cc(S(=O)(=O)NCC(C)(C)O)ccc3C)cnc2N)sn1 [Example 4.8, hydrochloride]" quantity_kind=pIC50 endpoint_result="< 5.00"
molecule=Cc1ccc(S(=O)(=O)NCCC(C)(C)O)cc1-c1cnc(N)c(-c2cnn(C)c2)c1 quantity_kind=pIC50 endpoint_result="< 5.04"
molecule="Cc1noc(-c2cc(-c3cc(S(=O)(=O)NCC(C)(C)CO)ccc3C)cnc2N)n1 [Example 37.18, hydrochloride]" quantity_kind=pIC50 endpoint_result="< 5.00"
molecule=Cc1noc(-c2cc(-c3cc(S(=O)(=O)NC4CCOCC4)ccc3C)cnc2N)n1 quantity_kind=pIC50 endpoint_result=5.09
molecule="Cc1noc(-c2cc(-c3cc(S(=O)(=O)N[C@H]4CC[C@H](O)CC4)ccc3C)cnc2N)n1 [Example 12, hydrochloride salt]" quantity_kind=pIC50 endpoint_result="< 5.00"
molecule=Cc1ccc(S(=O)(=O)NCCC(C)(C)O)cc1-c1cnc(N)c(-c2cnn(C)n2)c1 quantity_kind=pIC50 endpoint_result=5.12
molecule=Cc1cc(-c2cc(-c3cc(S(=O)(=O)NCCC(C)(C)O)ccc3C)cnc2N)ccn1 quantity_kind=pIC50 endpoint_result="< 5.04"
molecule="Cc1ccc(S(=O)(=O)N[C@H]2CC[C@H](O)CC2)cc1-c1cnc(N)c(-c2nc(C(F)F)no2)c1 [Example 70, hydrochloride]" quantity_kind=pIC50 endpoint_result="< 5.00"
molecule=Cc1cc(-c2cc(-c3cc(S(=O)(=O)N[C@H]4CC[C@H](O)CC4)ccc3C)cnc2N)ccn1 quantity_kind=pIC50 endpoint_result=5.14
molecule=Cc1noc(-c2cc(-c3cc(S(=O)(=O)NCCC(F)(F)F)ccc3C)cnc2N)n1 quantity_kind=pIC50 endpoint_result="< 5.00"
molecule=Cc1noc(-c2cc(-c3cc(S(=O)(=O)N4CC(CO)C4)ccc3C)cnc2N)n1 quantity_kind=pIC50 endpoint_result="< 5.00"
molecule=Cc1cc(-c2cc(-c3cc(S(=O)(=O)NCC4(O)CCC4)ccc3C)cnc2N)on1 quantity_kind=pIC50 endpoint_result="< 5.00"
molecule="Cc1noc(-c2cc(-c3cc(S(=O)(=O)NCC4CCOC4)ccc3C)cnc2N)n1 (stereo not drawn)" quantity_kind=pIC50 endpoint_result="< 5.00"
molecule=Cc1cc(-c2cc(-c3cc(S(=O)(=O)NCCO)ccc3C)cnc2N)on1 quantity_kind=pIC50 endpoint_result="< 5.00"
molecule="Cc1ccc(S(=O)(=O)NCC(C)(C)O)cc1-c1cnc(N)c(-c2nc(C3CC3)no2)c1 [Example 80, hydrochloride]" quantity_kind=pIC50 endpoint_result="< 5.00"

* * *

target: PI 3-kinase alpha (Homo sapiens (Human), UniProt P42336)
Sequence (P42336 whole entry, looked up): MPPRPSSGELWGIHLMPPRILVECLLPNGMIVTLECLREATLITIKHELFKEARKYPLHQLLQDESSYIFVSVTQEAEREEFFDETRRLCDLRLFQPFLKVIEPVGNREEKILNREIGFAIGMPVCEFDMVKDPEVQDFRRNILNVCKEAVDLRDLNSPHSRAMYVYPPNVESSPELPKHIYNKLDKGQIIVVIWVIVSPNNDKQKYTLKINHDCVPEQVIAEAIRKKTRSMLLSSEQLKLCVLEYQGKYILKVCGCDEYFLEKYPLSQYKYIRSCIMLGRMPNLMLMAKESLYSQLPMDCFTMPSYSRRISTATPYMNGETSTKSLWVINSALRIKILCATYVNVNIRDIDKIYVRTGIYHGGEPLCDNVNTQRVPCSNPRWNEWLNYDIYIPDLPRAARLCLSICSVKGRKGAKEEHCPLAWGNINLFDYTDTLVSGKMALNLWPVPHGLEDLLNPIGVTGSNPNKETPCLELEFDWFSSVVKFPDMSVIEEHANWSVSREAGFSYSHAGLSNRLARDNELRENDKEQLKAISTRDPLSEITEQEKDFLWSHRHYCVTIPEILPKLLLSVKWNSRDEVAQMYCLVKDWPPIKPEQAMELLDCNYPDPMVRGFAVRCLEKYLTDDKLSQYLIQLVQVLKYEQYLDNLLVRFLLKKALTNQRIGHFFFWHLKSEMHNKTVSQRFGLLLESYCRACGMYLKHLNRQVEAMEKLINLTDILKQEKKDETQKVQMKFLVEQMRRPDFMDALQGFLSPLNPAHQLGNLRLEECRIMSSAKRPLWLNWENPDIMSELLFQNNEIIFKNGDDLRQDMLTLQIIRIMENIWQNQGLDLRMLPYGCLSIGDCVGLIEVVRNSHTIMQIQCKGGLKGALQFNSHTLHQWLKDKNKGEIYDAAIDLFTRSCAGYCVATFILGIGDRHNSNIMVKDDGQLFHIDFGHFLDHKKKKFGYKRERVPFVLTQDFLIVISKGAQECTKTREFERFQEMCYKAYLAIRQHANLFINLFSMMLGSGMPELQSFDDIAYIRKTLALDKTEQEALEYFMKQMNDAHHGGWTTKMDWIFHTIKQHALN
Sequence (P27986 whole entry partner, looked up): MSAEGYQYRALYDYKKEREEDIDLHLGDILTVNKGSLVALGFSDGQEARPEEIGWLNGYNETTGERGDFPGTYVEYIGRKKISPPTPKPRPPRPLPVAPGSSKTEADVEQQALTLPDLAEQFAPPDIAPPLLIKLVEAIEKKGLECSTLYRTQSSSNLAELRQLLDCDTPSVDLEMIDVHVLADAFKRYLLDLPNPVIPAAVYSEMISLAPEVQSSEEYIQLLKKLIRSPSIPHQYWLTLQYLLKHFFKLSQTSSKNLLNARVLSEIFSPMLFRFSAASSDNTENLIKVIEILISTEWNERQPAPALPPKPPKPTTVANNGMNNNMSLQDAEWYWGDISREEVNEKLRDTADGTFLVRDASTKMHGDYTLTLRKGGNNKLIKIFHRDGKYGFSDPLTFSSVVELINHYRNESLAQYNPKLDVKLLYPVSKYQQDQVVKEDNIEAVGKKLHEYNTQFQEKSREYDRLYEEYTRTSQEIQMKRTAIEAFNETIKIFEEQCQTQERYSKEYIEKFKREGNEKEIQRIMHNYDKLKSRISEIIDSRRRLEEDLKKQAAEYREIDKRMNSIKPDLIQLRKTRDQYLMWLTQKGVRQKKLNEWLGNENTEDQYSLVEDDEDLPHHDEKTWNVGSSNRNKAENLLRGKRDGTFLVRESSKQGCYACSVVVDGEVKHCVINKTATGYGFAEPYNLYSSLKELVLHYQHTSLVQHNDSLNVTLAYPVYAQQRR
pIC50: −log10 of the molar value. Where a name gives a salt, the structure may show the parent alone.
Reported pIC50 by item:
quantity.kind: pIC50

compound="Cc1cc(-c2cc(-c3cc(S(=O)(=O)N4CC(N(C)C)C4)ccc3C)cnc2N)on1 [Example 19.19, acetic acid salt]" quantity_kind=pIC50 endpoint_result=5.51
compound="Cc1ncc(-c2cc(-c3cc(S(=O)(=O)NC(CO)C(F)(F)F)ccc3C)cnc2N)o1 (stereo not shown)" quantity_kind=pIC50 endpoint_result=6.39
compound=Cc1ncc(-c2cc(-c3cc(S(=O)(=O)NCC4(O)CCOCC4)ccc3C)cnc2N)o1 quantity_kind=pIC50 endpoint_result=6.23
compound=Cc1ncc(-c2cc(-c3cc(S(=O)(=O)NCC4(O)CC4)ccc3C)cnc2N)o1 quantity_kind=pIC50 endpoint_result=6.60

* * *

Target or system Vps34 (Homo sapiens (Human)): recorded IC50 listed per item.
Structures can show the parent of a compound that is named as a salt.
quantity.kind: IC50

compound="Cc1cc(-c2cc(-c3cc(S(=O)(=O)N4CC[C@H](N(C)C)C4)ccc3C)cnc2N)on1 [Example 19.22, acetic acid salt]" quantity_kind=IC50 endpoint_result="> 10 µM"
compound="Cc1noc(-c2cc(-c3cc(S(=O)(=O)NCC(C)(C)O)c(C)cc3C)cnc2N)n1 [Example 100]" quantity_kind=IC50 endpoint_result="> 10 µM"
compound="Cc1ncc(-c2cc(-c3cc(S(=O)(=O)NCCO)ccc3C)cnc2N)s1 [Example 83.5]" quantity_kind=IC50 endpoint_result="5.2 µM"
compound="Cc1ncc(-c2cc(-c3cc(S(=O)(=O)N[C@H]4CC[C@H](O)CC4)ccc3C)cnc2N)s1 [Example 97]" quantity_kind=IC50 endpoint_result="3.8 µM"
compound="Cc1ncc(-c2cc(-c3cc(S(=O)(=O)NCC4(CO)CCOCC4)ccc3C)cnc2N)o1 [Example 104.13]" quantity_kind=IC50 endpoint_result="> 10 µM"
compound="Cc1ncc(-c2cc(-c3cc(S(=O)(=O)NC4CC5(CC(O)C5)C4)ccc3C)cnc2N)s1 (centres unmarked) [Example 28]" quantity_kind=IC50 endpoint_result="2 µM"
compound="Cc1cc(-c2cc(-c3cc(S(=O)(=O)N4CC(CO)C4)ccc3C)cnc2N)on1 [Example 37.12]" quantity_kind=IC50 endpoint_result="> 10 µM"
compound="Cc1ncc(-c2cc(-c3cc(S(=O)(=O)NCC4COC4)ccc3C)cnc2N)o1 [Example 104.3]" quantity_kind=IC50 endpoint_result="4.7 µM"
